# STUDY_TARGET: Cdk9/cyclinT1 (Homo sapiens)
# ASSAY_METHOD_TEXT: Cdk9/CyclinT1 IMAP assay
MEASUREMENT_TYPE: IC50 (nM)

TEST_SMILES	STUDY_TARGET	UNIT_OF_MEASURE	IC50
C[C@H](CO)Nc1cc(-c2cncc(NCC3CCOCC3)c2)c(Cl)cn1	Cdk9/cyclinT1 (Homo sapiens)	nM	325
N[C@H]1CC[C@H](Nc2cc(-c3cnc(N4CCOCC4)c(NCC4CCOCC4)c3)c(Cl)cn2)CC1	Cdk9/cyclinT1 (Homo sapiens)	nM	1960
Clc1cnc(NC2CC2)cc1-c1cncc(NCC2CCOCC2)c1	Cdk9/cyclinT1 (Homo sapiens)	nM	57

(A) OCCNc1cc(-c2cncc(NCC3CCOCC3)c2)c(Cl)cn1
(B) O[C@H]1CC[C@H](Nc2cc(-c3cnc(N4CCOCC4)c(NCC4CCOCC4)c3)c(Cl)cn2)CC1
(C) O[C@H](CN[C@H]1CC[C@H](Nc2cc(-c3cc(NCC4CCOCC4)cnc3Cl)c(Cl)cn2)CC1)C(F)(F)F
(Q) Order the records, beginning with the lowest IC50 and ending with the highest. Your answer should be the labels, listed in the requested order.
(A) C, A, B

(I) C[C@@H](CO)Nc1cc(-c2cncc(NCC3CCOCC3)c2)c(Cl)cn1
(II) N[C@H]1CC[C@H](Nc2cc(-c3cncc(NCc4cccnc4)c3)c(Cl)cn2)CC1
(III) O[C@H]1CCCC[C@@H]1N[C@H]1CC[C@H](Nc2cc(-c3cnc(Cl)c(NCC4CCOCC4)c3)c(Cl)cn2)CC1
(IV) CC(C)(CN)CNc1cc(-c2cncc(NCc3cccc(F)c3)c2)c(Cl)cn1
(Q) Task field, ranking: reported IC50, descending order. List labels; respect the requested ordering.
(A) I, IV, II, III

* * *

# STUDY_TARGET: Cdk9/cyclinT1 (Homo sapiens, UniProt P50750)
# Sequence (P50750 whole entry): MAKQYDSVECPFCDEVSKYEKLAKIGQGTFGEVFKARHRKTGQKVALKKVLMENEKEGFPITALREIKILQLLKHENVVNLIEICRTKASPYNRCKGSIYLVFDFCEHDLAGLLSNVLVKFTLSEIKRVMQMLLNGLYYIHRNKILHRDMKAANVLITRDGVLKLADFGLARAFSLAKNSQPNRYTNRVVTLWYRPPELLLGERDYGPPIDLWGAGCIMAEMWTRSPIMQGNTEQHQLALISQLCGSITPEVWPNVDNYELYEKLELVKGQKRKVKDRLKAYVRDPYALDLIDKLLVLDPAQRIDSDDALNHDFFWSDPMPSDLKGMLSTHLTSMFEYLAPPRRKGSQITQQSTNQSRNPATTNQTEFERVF
# Sequence (O60563 whole entry partner): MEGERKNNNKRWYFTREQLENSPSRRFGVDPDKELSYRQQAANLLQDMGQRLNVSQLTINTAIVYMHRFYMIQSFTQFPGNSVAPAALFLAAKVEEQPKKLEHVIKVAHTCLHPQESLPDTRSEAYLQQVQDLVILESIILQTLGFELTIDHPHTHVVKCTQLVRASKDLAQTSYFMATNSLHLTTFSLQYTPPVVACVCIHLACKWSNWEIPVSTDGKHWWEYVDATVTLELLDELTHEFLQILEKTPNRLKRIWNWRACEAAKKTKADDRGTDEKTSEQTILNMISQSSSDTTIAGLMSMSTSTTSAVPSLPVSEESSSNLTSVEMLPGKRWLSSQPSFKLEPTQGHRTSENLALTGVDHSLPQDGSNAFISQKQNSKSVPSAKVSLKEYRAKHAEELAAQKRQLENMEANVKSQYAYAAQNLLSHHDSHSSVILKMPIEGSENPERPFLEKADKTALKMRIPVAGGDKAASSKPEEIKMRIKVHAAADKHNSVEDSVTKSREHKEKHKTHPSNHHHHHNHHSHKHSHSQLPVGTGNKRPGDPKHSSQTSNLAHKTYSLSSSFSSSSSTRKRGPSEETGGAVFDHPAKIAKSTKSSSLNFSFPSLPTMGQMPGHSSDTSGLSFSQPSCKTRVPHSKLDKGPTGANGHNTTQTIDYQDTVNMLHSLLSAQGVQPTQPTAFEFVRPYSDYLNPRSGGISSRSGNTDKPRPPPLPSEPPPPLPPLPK
# ASSAY_METHOD_TEXT: Cdk9/CyclinT1 IMAP assay
pIC50: −log10 of the molar value.
MEASUREMENT_TYPE: pIC50

Study these solved cases before continuing.
MOLECULE	pIC50
Fc1cccc(CNc2cncc(-c3cc(NCC4CCOCC4)ncc3Cl)c2)c1	8.05
COc1cccc(CNc2cncc(-c3cc(N[C@H]4CC[C@H](N)CC4)ncc3Cl)c2)c1	8.10

(I) NCC(O)CNc1cc(-c2cncc(NCc3cccc(F)c3)c2)c(Cl)cn1 (stereo not shown)
(II) O[C@H]1CC[C@H](Nc2cc(-c3cnc(N4CCOCC4)c(NCc4cccc(F)c4)c3)c(Cl)cn2)CC1
(III) N[C@H]1CC[C@H](Nc2cc(-c3cnc(O)c(NCC4CCOCC4)c3)c(Cl)cn2)CC1
(Q) Please list these in order of increasing pIC50. Thank you! Give your ranking as a list of the labels in the requested order.
(A) II, III, I
(II: 6.18, III: 6.38, I: 8.00)

* * *

# STUDY_TARGET: Cdk9/cyclinT1 (Homo sapiens)
# ASSAY_METHOD_TEXT: Cdk9/CyclinT1 IMAP assay
MEASUREMENT_TYPE: IC50 (µM)

COMPOUND	IC50 / µM
Clc1cnc(N[C@H]2CC[C@H](N3CCCC3)CC2)cc1-c1cc(NCC2CCOCC2)cnc1Cl	0.035
N[C@H]1CC[C@@H](Nc2cc(-c3cncc(NCc4cccc(F)c4)c3)c(Cl)cn2)CC1	0.011
CO[C@H](CN[C@H]1CC[C@H](Nc2cc(-c3cc(NCC4CCOCC4)cnc3Cl)c(Cl)cn2)CC1)C(F)(F)F	0.007
N[C@H]1CC[C@H](Nc2cc(-c3cncc(NCC4CCOCC4)c3)c(Cl)cn2)CC1	0.018
N[C@H]1CC[C@H](Nc2cc(-c3cnc(N4CCOCC4)c(NCc4cccc(F)c4)c3)c(Cl)cn2)CC1	0.61

(1) CN1CCC(CNc2cc(-c3cncc(NCC4CCOCC4)c3)c(Cl)cn2)CC1
(2) OCCCNc1cc(-c2cncc(NCC3CCOCC3)c2)c(Cl)cn1
(Q) Which entry shows the lesser value of IC50 here, 1 or 2 ? Mark your answer with the label of the selected entry.
(A) 2
(2: 0.199 µM, 1: 1.97 µM)

(I) COCCNc1cc(-c2cncc(NCC3CCOCC3)c2)c(Cl)cn1
(II) N[C@H]1CC[C@H](Nc2cc(-c3cncc(NCC4CCCOC4)c3)c(Cl)cn2)CC1 (some centres unmarked)
(Q) Which record would sort first by descending IC50, I or II ? Answer with the label corresponding to your selection.
(A) I
(I: 2.26 µM, II: 0.016 µM)
